System: E. coli TESEC Mtb Alr
METHOD NOTES: growth (OD600 after 10 h); higher = more growth (less inhibition)
RECORDED CONDITIONS: arabinose 1000000 nM; compound 0.1 mM; raw OD600 reference: median of DMSO wells 0.193, cell-free background 0.041
Structures can show the parent of a compound that is named as a salt.
PARAMETER MEASURED: growth

A selection of reference data follows.
COMPOUND	growth
O=C(NCC1CCCCN1)c1cc(OCC(F)(F)F)ccc1OCC(F)(F)F (stereo not drawn) [Flecainide acetate]	0.168
COc1cccc2c1C(=O)c1c(O)c3c(c(O)c1C2=O)C[C@@](O)(C(=O)CO)C[C@@H]3O[C@H]1C[C@H](N)[C@H](O)[C@H](C)O1 [Doxorubicin hydrochloride]	0.045

QUERY: I am curious: what growth value has been reported for COc1c(N2CCNC(C)C2)c(F)cc2c(=O)c(C(=O)O)cn(C3CC3)c12 (stereo not drawn) ?
RESULT: 0.0398

QUERY: I am curious: what growth value has been reported for CC1CC(OC(=O)C(O)c2ccccc2)CC(C)(C)N1C (stereo not drawn) [Eucatropine hydrochloride] ?
RESULT: 0.191

QUERY: I am curious: what growth value has been reported for NCCc1cc[nH]n1 [Betazole hydrochloride] ?
RESULT: 0.194

QUERY: I am curious: what growth value has been reported for CC(=O)OCC(=O)NCCCOc1cccc(CN2CCCCC2)c1 [Roxatidine Acetate HCl] ?
RESULT: 0.186

QUERY: I am curious: what growth value has been reported for OCCN1CCN(CC/C=C2/c3ccccc3Sc3ccc(Cl)cc32)CC1 [Zuclopenthixol dihydrochloride] ?
RESULT: 0.0779

QUERY: I am curious: what growth value has been reported for CC(C)OC(=O)CCC/C=C\C[C@@H]1[C@@H](CC[C@@H](O)CCc2ccccc2)[C@H](O)C[C@@H]1O ?
RESULT: 0.0401

----------
System: E. coli TESEC Mtb Asd
METHOD NOTES: growth (OD600 after 10 h); higher = more growth (less inhibition)
RECORDED CONDITIONS: arabinose induction (level): Low; compound 0.1 mM; raw OD600 reference: median of DMSO wells 0.417, cell-free background 0.041
Structures can show the parent of a compound that is named as a salt.
Everything with growth lower than 0.4 is f; everything else, including exactly 0.4, is t.

COMPOUND	TEST SYSTEM	CLASS ASSIGNMENT
O=C(CCNNC(=O)c1ccncc1)NCc1ccccc1 [Nialamide]	E. coli TESEC Mtb Asd	f

QUERY: Can Fc1ccc([C@@H]2CCNC[C@H]2COc2ccc3c(c2)OCO3)cc1 [Paroxetine Hydrochloride] be said to have growth at or above 0.4?
RESULT: f

QUERY: Can C[C@@H]1[C@H](O)[C@@H](C)/C=C/C=C/C=C/C=C/C=C/C=C/C=C/[C@H](O[C@@H]2O[C@H](C)[C@@H](O)[C@H](N)[C@@H]2O)C[C@@H]2O[C@](O)(C[C@@H](O)C[C@@H](O)[C@H](O)CC[C@@H](O)C[C@@H](O)CC(=O)O[C@H]1C)C[C@H](O)[C@H]2C(=O)O be said to have growth at or above 0.4?
RESULT: t

QUERY: Can O=C(O)COC(=O)Cc1ccccc1Nc1c(Cl)cccc1Cl be said to have growth at or above 0.4?
RESULT: f

QUERY: Can O=C(O)c1ccccc1OP(=O)(O)O be said to have growth at or above 0.4?
RESULT: t

QUERY: Can Nc1c(Br)cc(Br)cc1CN[C@H]1CC[C@H](O)CC1 [Ambroxol hydrochloride] be said to have growth at or above 0.4?
RESULT: f

QUERY: Can O=C(O)COCCN1CCN(C(c2ccccc2)c2ccc(Cl)cc2)CC1 (stereo unspecified) [Cetirizine dihydrochloride] be said to have growth at or above 0.4?
RESULT: f

QUERY: Can C1CCC(C(CC2CCCCN2)C2CCCCC2)CC1 (stereo unspecified) [Perhexiline maleate] be said to have growth at or above 0.4?
RESULT: f

QUERY: Can CCN1CCN(C(=O)N[C@@H](C(=O)N[C@@H]2C(=O)N3[C@@H]2SC(C)(C)[C@@H]3C(=O)O)c2ccccc2)C(=O)C1=O [Piperacillin sodium salt] be said to have growth at or above 0.4?
RESULT: t

QUERY: Can C=C(CC)C(=O)c1ccc(OCC(=O)O)c(Cl)c1Cl be said to have growth at or above 0.4?
RESULT: f

QUERY: Can Cc1cccc(Nc2ccncc2S(=O)(=O)NC(=O)NC(C)C)c1 [Torsemide] be said to have growth at or above 0.4?
RESULT: f

----------
Listing of recorded growth by entry.
Tested on: E. coli TESEC Mtb Alr
METHOD NOTES: growth (OD600 after 10 h); higher = more growth (less inhibition)
RECORDED CONDITIONS: arabinose 10000 nM; compound 0.1 mM; raw OD600 reference: median of DMSO wells 0.264, cell-free background 0.041
Where a name gives a salt, the structure may show the parent alone.

A selection of reference data follows.
COMPOUND	growth
CN1CCN(C2=Nc3cc(Cl)ccc3Nc3ccccc32)CC1	0.242
Oc1ncnc2[nH]ncc12	0.241
COc1ccc(CN(CCN(C)C)c2ccccn2)cc1 [Pyrilamine maleate]	0.263
O=C(CCCN1CC=C(n2c(=O)[nH]c3ccccc32)CC1)c1ccc(F)cc1	0.225

Now for the compound whose growth we want.
QUERY: I am curious: what growth value has been reported for CCN(CCO)CCCC(C)Nc1ccnc2cc(Cl)ccc12 (centres undefined) [Hydroxychloroquine sulfate] ?
RESULT: 0.27

----------
Listing of recorded growth by entry.
Tested on: E. coli TESEC Mtb Alr
METHOD NOTES: growth (OD600 after 10 h); higher = more growth (less inhibition)
RECORDED CONDITIONS: arabinose 1000000 nM; compound 0.1 mM; raw OD600 reference: median of DMSO wells 0.193, cell-free background 0.041
Structures can show the parent of a compound that is named as a salt.

A selection of reference data follows.
COMPOUND	growth
CC(=O)N1CCN(c2ccc(OCC3COC(Cn4ccnc4)(c4ccc(Cl)cc4Cl)O3)cc2)CC1 (centres undefined)	0.0432
COc1cc(Cc2cnc(N)nc2N)cc(OC)c1OC	0.0455
C[C@@H](O)[C@H]1C(=O)N2C(C(=O)O)=C(S[C@@H]3CN[C@H](C(=O)N(C)C)C3)[C@H](C)[C@H]12	0.0817
Cc1c(Cl)cccc1Nc1ccccc1C(=O)O	0.0424
CC(=O)NCCCS(=O)(=O)O [Acamprosate calcium]	0.171

QUERY: I am curious: what growth value has been reported for CNCCc1ccccn1 [Betahistine mesylate] ?
RESULT: 0.182

QUERY: I am curious: what growth value has been reported for CC1(C)NC(=O)N(c2ccc([N+](=O)[O-])c(C(F)(F)F)c2)C1=O [Nilutamide] ?
RESULT: 0.153

QUERY: I am curious: what growth value has been reported for CC1(C)O[C@@H]2[C@@H](CO[C@@]3(COS(N)(=O)=O)OC(C)(C)O[C@@H]23)O1 [Topiramate] ?
RESULT: 0.204

QUERY: I am curious: what growth value has been reported for CC(C)(C(=O)c1cccnc1)c1cccnc1 ?
RESULT: 0.2

----------
System: E. coli TESEC Mtb Alr
METHOD NOTES: growth (OD600 after 10 h); higher = more growth (less inhibition)
RECORDED CONDITIONS: arabinose 10000 nM; compound 0.1 mM; raw OD600 reference: median of DMSO wells 0.264, cell-free background 0.041
Where a name gives a salt, the structure may show the parent alone.
Everything with growth lower than 0.2 is False; everything else, including exactly 0.2, is True.

// known answers, use as guide
COMPOUND	CLASS ASSIGNMENT
CN(C)CCC[C@@]1(c2ccc(F)cc2)OCc2cc(C#N)ccc21 [Escitalopram oxalate]	True
CC(CN(C)C)C(C)(O)Cc1ccc(Cl)cc1 (stereo not drawn) [Clobutinol hydrochloride]	True
N=C(NCCCCCCNC(=N)NC(=N)Nc1ccc(Cl)cc1)NC(=N)Nc1ccc(Cl)cc1 [Chlorhexidine]	False
CC(=O)O[C@H]1C[C@@H]2CC[C@@H]3[C@H](CC[C@@]4(C)[C@H]3C[C@H]([N+]3(C)CCCCC3)[C@@H]4OC(C)=O)[C@@]2(C)C[C@@H]1N1CCCCC1 [Vecuronium bromide]	False
COc1cc2nc(N3CCN(C(=O)c4ccco4)CC3)nc(N)c2cc1OC [Prazosin hydrochloride]	True

QUERY: Can Oc1c(I)cc(Cl)c2cccnc12 [Clioquinol] be said to have growth at or above 0.2?
RESULT: False

QUERY: Can CN(C)CCOC(c1ccccc1)c1ccccc1.Cn1c(=O)c2[nH]c(Cl)nc2n(C)c1=O [Dimenhydrinate] be said to have growth at or above 0.2?
RESULT: True

QUERY: Can Clc1ccc2c(c1)C(N1CCNCC1)=Nc1ccccc1O2 [Amoxapine] be said to have growth at or above 0.2?
RESULT: False
